Values were extracted from PubChem BioAssay.

For each entry below, report its growth inhibition value.
- test.summary: inhibition of 3D7 malaria parasite growth – strain 3D7 (AID 2306);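 also: 0% = DMSO wells and 100% = chloroquine plus artemisinin control wells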
- cond: P. falciparum 3D7 erythrocytic growth, LDH absorbance, 72 h; at 2 µM; hits give high values
The figure you give is taken to be in %; do not add the unit.

Query block: Dear colleague, I am looking for the recorded growth inhibition of the following compound: CN(C)CCCN(C)c1cccc2c1nc(-c1cccnc1)n2CCNCc1ccccc1
Result block: 89

Query block: Dear colleague, I am looking for the recorded growth inhibition of the following compound: O=c1cc(NCCCNCc2cccc3c2OC(F)(F)O3)[nH]c2ccccc12
Result block: 88

Query block: Dear colleague, I am looking for the recorded growth inhibition of the following compound: CCN(CC)C(=NCCCCCCCCN=C(/N=C(/N)Nc1ccc(Cl)cc1)N(CC)CC)/N=C(/N)Nc1ccc(Cl)cc1
Result block: 99

Query block: Dear colleague, I am looking for the recorded growth inhibition of the following compound: O=C(Nc1ccc(-c2cccc(-c3nc4ccc(F)cc4[nH]3)c2)cc1)Nc1ccc(Cl)c(Cl)c1
Result block: 99

Query block: Dear colleague, I am looking for the recorded growth inhibition of the following compound: COc1ccc2nccc([C@@H](O)CN3CCC(NCCc4c[nH]c5ccccc45)CC3)c2c1
Result block: 98

Query block: Dear colleague, I am looking for the recorded growth inhibition of the following compound: Oc1ccc(Nc2ccnc3cc(Cl)ccc23)cc1
Result block: 100

Query block: Dear colleague, I am looking for the recorded growth inhibition of the following compound: CC1(C)N=C(N)N=C(N)N1OCCCOc1cccc(Cl)c1
Result block: 95

Query block: Dear colleague, I am looking for the recorded growth inhibition of the following compound: CC1(C)N=C(N)N=C(N)N1OCCc1ccc2ccccc2c1
Result block: 96

Query block: Dear colleague, I am looking for the recorded growth inhibition of the following compound: N#Cc1cccc(NC(=O)Nc2ccc3c(c2)CCN(C2CCC2)CC3)c1
Result block: 91

Query block: Dear colleague, I am looking for the recorded growth inhibition of the following compound: O=C(Nc1cccc(CN2CCCN(Cc3ccc4c(c3)OCO4)CC2)c1)c1ccc(-c2ccccc2)cc1
Result block: 90

Query block: Dear colleague, I am looking for the recorded growth inhibition of the following compound: O=C(NC1CCCCN(Cc2ccccc2O)C1)c1cccc(C(F)(F)F)c1 (stereo not drawn)
Result block: 93

Query block: Dear colleague, I am looking for the recorded growth inhibition of the following compound: CC(=O)Nc1ccc(C(=O)Nc2cccc(-c3cccc(-c4nc5ccc(C(F)(F)F)cc5[nH]4)c3)c2)cn1
Result block: 101

Query block: Dear colleague, I am looking for the recorded growth inhibition of the following compound: O=C(Nc1cc(F)cc(F)c1)N1CCOC(CCN2CCC3(CCc4ccccc43)CC2)(c2ccc(Cl)c(Cl)c2)C1 (stereo not drawn)
Result block: 100

Query block: Dear colleague, I am looking for the recorded growth inhibition of the following compound: c1ccc(-c2cccnn2)cc1
Result block: 98

Query block: Dear colleague, I am looking for the recorded growth inhibition of the following compound: COc1cc(CN2CCC(NC(=O)[C@H](Cc3ccccc3)NC(=O)Nc3ccc(Oc4ccccc4)cc3)C2)ccc1O (stereo partly drawn)
Result block: 92

Query block: Dear colleague, I am looking for the recorded growth inhibition of the following compound: O=[N+]([O-])c1cccc(C=NNc2nc(Nc3ccccc3)nc(Nc3ccccc3)n2)c1
Result block: 99

Query block: Dear colleague, I am looking for the recorded growth inhibition of the following compound: CC(=O)Nc1cccc(CN(Cc2ccc(-c3ccc(CNCc4cccnc4)cn3)cc2)C(=O)Cc2cccnc2)c1
Result block: 97

Query block: Dear colleague, I am looking for the recorded growth inhibition of the following compound: CC(C)C[C@H](NC(=O)[C@H](Cc1ccccc1)NC(=O)CCN1C(=O)COc2ccc(C(=O)O)cc21)C(=O)NC(CC1CCCCC1)C(O)CC(=O)NCCCn1ccnc1 (stereo partly drawn)
Result block: 99

Query block: Dear colleague, I am looking for the recorded growth inhibition of the following compound: COc1ccc2nccc([C@@H](O)CN3CCC(NC(=O)Cc4ccc(Br)c5ccccc45)CC3)c2c1
Result block: 98

Query block: Dear colleague, I am looking for the recorded growth inhibition of the following compound: Cc1ccc(CNC(=O)c2ccc(CN3CCCN(Cc4ccsc4)CC3)cc2)cc1
Result block: 93

Query block: Dear colleague, I am looking for the recorded growth inhibition of the following compound: O=S(=O)(NC1CCCCN(Cc2ccccc2O)C1)c1ccc(C(F)(F)F)cc1 (stereo not drawn)
Result block: 84

Query block: Dear colleague, I am looking for the recorded growth inhibition of the following compound: Cc1cc(N[C@@H](Cc2ccccc2)C(=O)NCCOc2ccccc2)nc(NCCc2ccccn2)n1
Result block: 92

Query block: Dear colleague, I am looking for the recorded growth inhibition of the following compound: CS(=O)(=O)c1cc2c(Nc3ccc(N4CCOCC4)cc3)c(C(N)=O)cnc2cc1Br
Result block: 101

Query block: Dear colleague, I am looking for the recorded growth inhibition of the following compound: Cc1cc(N[C@@H](Cc2ccccc2)C(=O)NCc2cccc(F)c2)nc(NCCc2ccccc2)n1
Result block: 101

Query block: Dear colleague, I am looking for the recorded growth inhibition of the following compound: CCNc1cc(C(=O)N[C@@H](Cc2ccccc2)[C@H](O)CNC(C)(C)CCCC(C)C)c(F)c(N2CCCS2(=O)=O)c1
Result block: 98

Query block: Dear colleague, I am looking for the recorded growth inhibition of the following compound: CN(C)CCOc1ccc(-c2cc(-c3ccncc3)c(-c3ccc(Cl)c(O)c3)o2)cc1
Result block: 99

Query block: Dear colleague, I am looking for the recorded growth inhibition of the following compound: CCn1cc2c3c(cc(C(=O)N[C@@H](Cc4ccccc4)[C@H](O)CNCc4cccc(OC)c4)cc31)N(C)S(=O)(=O)CC2
Result block: 99

Query block: Dear colleague, I am looking for the recorded growth inhibition of the following compound: c1ccc2c(C3CCN(CCCCOc4ccc5c(c4)CCN(C4CCC4)CC5)CC3)c[nH]c2c1
Result block: 102

Query block: Dear colleague, I am looking for the recorded growth inhibition of the following compound: c1cc(-c2ccc(CNCc3ccsc3)cc2)cc(-c2nc3ccccc3[nH]2)c1
Result block: 101

Query block: Dear colleague, I am looking for the recorded growth inhibition of the following compound: COc1cc2c(cc1C(F)(F)F)N(C(=O)Nc1cc(OC(F)(F)F)cc(-c3cccnc3)c1)CC2
Result block: 100

Query block: Dear colleague, I am looking for the recorded growth inhibition of the following compound: Cc1ccc(Cc2cnc(CN3CCCCC3)c(O)c2)cc1
Result block: 93

Query block: Dear colleague, I am looking for the recorded growth inhibition of the following compound: CN1CCCC1CCNC(=O)[C@H](CC1CCCCC1)NC(=O)c1ccc(O)c(-c2ccc(Cl)c(Cl)c2)c1 (stereo partly drawn)
Result block: 98

Query block: Dear colleague, I am looking for the recorded growth inhibition of the following compound: COc1ccc(-c2cccc(NC(=O)c3ccc(C#N)cc3)c2)cc1CN(C)CCN(C)C
Result block: 90

Query block: Dear colleague, I am looking for the recorded growth inhibition of the following compound: Cc1cc(O)c(CNC2CCCCC2)cc1C
Result block: 95

Query block: Dear colleague, I am looking for the recorded growth inhibition of the following compound: COc1ccc(CCNCCCCCCNCCc2ccc(Cl)c3ccccc23)cc1OC
Result block: 100

Query block: Dear colleague, I am looking for the recorded growth inhibition of the following compound: Cc1ccc(CN2CCN(CC(O)COc3ccc4c(c3)CCC4)CC2)cc1 (stereo not drawn)
Result block: 95

Query block: Dear colleague, I am looking for the recorded growth inhibition of the following compound: Cc1[nH]c(C)c(-c2ccc(-c3ccc(Cl)cc3)nc2)c(=O)c1Cl
Result block: 95

Query block: Dear colleague, I am looking for the recorded growth inhibition of the following compound: O=C(NCCc1cccc(Cl)c1Cl)c1cnc(N2CCN(c3ccncc3)CC2)c(Cl)c1
Result block: 100
